Record form. Attribute: protein stability index. Fill in for each entry.
B1: FAM98B (parent)
chain: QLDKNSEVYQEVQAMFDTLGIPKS

Variants of: B1
ASSAY NOTES: protein stability index of a GFP-peptide fusion (GPS, HEK-293T) (PSI 1-6); higher = more stable;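 further: lentivirally expressed fusions sorted by FACS into six bins by GFP to DsRed ratio, PSI derived from sequencing read proportions per bin multiplied by bin number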
TEST PARAMETERS: c terminus: a fixed tail appended
Numbers only.

{"columns": ["CONSTRUCT SEQUENCE", "OBSERVATION TYPE", "OBS VALUE"],
 "data": [
  ["QLDKNSEVYQEDQAMFDTLGIPKS", "protein stability index", 4.19],
  ["QLDKNSEVYQEVQAMFDTLFIPKS", "protein stability index", 3.04],
  ["QLDKNSEAYQEVQAMFDTLGIPKS", "protein stability index", 3.85]
]}

The following variants each have a reported value; give each one's protein stability index.
1. QLDKNSEVYQEVQAMFDTIGIPKS
2. QLDKNSEVYQEVQAMFDTLGINKS
3. PLDKNSEVYQEVQAMFDTLGIPKS
4. QLDKNSEVYQEVQAEFDTLGIPKS

1. 3.06
2. 3.38
3. 3.53
4. 4.28

Please look at the items below and tell me protein stability index for each one, in order.
1. QLDLNSEVYQEVQAMFDTLGIPKS
2. QLDKNSEVYQEVQAMFDTLGIPKP
3. QLDKNSEVYQEVQAMFDTLGIPAS

1: 3.39; 2: 2.79; 3: 3.26
